Biological target: T1, human TIGIT on cells (human, UniProt Q495A1 22-141)
T1 construct: also called Expi293 human TIGIT over-expressing cells
T1 sequence: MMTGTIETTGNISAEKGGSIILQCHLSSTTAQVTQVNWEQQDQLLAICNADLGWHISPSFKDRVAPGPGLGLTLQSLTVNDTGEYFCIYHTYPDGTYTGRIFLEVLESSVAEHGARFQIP
Test: FACS titration of AF647-labelled mAb on human effector memory CD8+ T cells, Donor 334
pKd: −log10 of the molar value.
Overview of reported pKd across a group of binders:

binder	pKd
CPA.9.083.H4(S241P) (antibody, human IgG4, V domains shown) VH: EVQLVETGGGLIQPGRSLRLSCAASGFTFSSYAMHWVRQAPGKGLEWVAVISYDGTPVYYADSVKGRFTISRDNSKNTLYLQMNSLRAEDTAVYYCARDPLPLHYYGMDVWGQGTTVTVSS VL: QSALTQPRSASGNPGQRVTISCSGSSSNMGRRPVNWYQQIPGTAPKLLIYSQNQRPSGVPDRFSGSQSGTSASLTISGLQSEDEAEYFCAVWDGDRRSLQLGGGTQLAVLG	9.89
BM29 hIgG4 (antibody, V domains shown, benchmark anti-human TIGIT antibody, human IgG4 with S241P; also called BM29-H4; US2016/0176963A1 Clone 22G2 as hIgG4) VH: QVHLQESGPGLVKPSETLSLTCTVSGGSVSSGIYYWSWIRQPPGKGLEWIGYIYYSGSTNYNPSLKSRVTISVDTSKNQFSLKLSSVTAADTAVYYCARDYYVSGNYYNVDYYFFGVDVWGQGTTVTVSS VL: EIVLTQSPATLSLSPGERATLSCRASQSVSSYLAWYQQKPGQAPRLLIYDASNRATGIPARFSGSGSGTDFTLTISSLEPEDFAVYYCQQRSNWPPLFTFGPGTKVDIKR	9.23
BM26 hIgG4 (antibody, V domains shown, benchmark anti-human TIGIT antibody, human IgG4 with S241P; also called BM26-H4; WO2016/028656A1 Clone 3106 as hIgG4) VH: EVQLQQSGPELVKPGSSVKMSCKASGYTFSSYVMHWVKQKPGQGLEWIGYIDPYNDGAKYNEKFKGKATLTSDKSSSTAYMELSSLTSEDSAVYYCARGGPYGWYFDVWGAGTTVTVSS VL: DIQMTQSPASLSASVGETVTITCRASEHIYSYLSWYQQKQGKSPQLLVYNAKTLAEGVPSRFSGSGSGTQFSLKINSLQPEDFGTYYCQHHFGSPLTFGAGTTLELKR	9.09
